Tested on: AZT-resistant HIV-1
Assay: Antiviral activity against AZT-resistant HIV-1 in P4/R5 cells
Type: cell-based
Conditions: Human immunodeficiency virus 1; compound alone, P4/R5 cells; read-out: EC50 against replication
Experimental: P4/R5 cells are plated in 96-well culture dishes at a cell density of 3×10^3 cells/well in 100 μl DMEM/10% fetal bovine serum. In one set of plates, bisphosphonate variants are added (25μM final concentration in FIG. 6) to individual wells. In another identical set of plates, bisphosphonate variants are added along with specific concentrations of AZT (0.1 μM final concentration in FIG. 6). […] The cells are then washed and the extent of HIV infection is determined fluorometrically. […]

SMILES_TEXT	EC50
Cc1cn([C@H]2C[C@H](N=[N+]=[N-])[C@@H](CO)O2)c(=O)[nH]c1=O	~1.2 µM

###

Molecular target: TAM-mutant HIV-1 reverse transcriptase (UniProt P04585)
Conditions: read-out: Estimated IC50; preferred BPH variants; quantity inhibited not given

COMPOUND	TARGET_OR_SYSTEM	IC50 [µM]
O=P(O)(O)C(Nc1cccc(-c2ccc(F)cc2F)c1)P(=O)(O)O [Compound 316A]	TAM-mutant HIV-1 reverse transcriptase (UniProt P04585)	3.9
O=P(O)(O)C(Nc1ccc(Cc2ccccc2)cc1)P(=O)(O)O [Compound 332A]	TAM-mutant HIV-1 reverse transcriptase (UniProt P04585)	3.5
O=P(O)(O)C(Nc1ccc(Br)cn1)P(=O)(O)O [Compound 48B]	TAM-mutant HIV-1 reverse transcriptase (UniProt P04585)	3.4
O=P(O)(O)C(Nc1cccc(-c2cc(F)cc(F)c2)c1)P(=O)(O)O [Compound 317A]	TAM-mutant HIV-1 reverse transcriptase (UniProt P04585)	2.1
O=P(O)(O)C(Nc1cccc(-c2ccc(F)c(F)c2)c1)P(=O)(O)O [Compound 327A]	TAM-mutant HIV-1 reverse transcriptase (UniProt P04585)	2.1
O=P(O)(O)C(O)(Cc1ccc(-c2ccc(Cl)cc2)cc1)P(=O)(O)O [Compound 326A]	TAM-mutant HIV-1 reverse transcriptase (UniProt P04585)	3.9
O=P(O)(O)C(Nc1ccc(Cl)cc1Cl)P(=O)(O)O [Compound 244A]	TAM-mutant HIV-1 reverse transcriptase (UniProt P04585)	8
O=P(O)(O)C(Nc1ccc2c(c1)CCC2)P(=O)(O)O [Compound 215A]	TAM-mutant HIV-1 reverse transcriptase (UniProt P04585)	4.5
O=P(O)(O)C(Nc1cccc(Cc2ccccc2)c1)P(=O)(O)O [Compound 262A]	TAM-mutant HIV-1 reverse transcriptase (UniProt P04585)	4.2
O=P(O)(O)C(O)(Cc1cccc(Oc2ccccc2)c1)P(=O)(O)O [Compound 339A]	TAM-mutant HIV-1 reverse transcriptase (UniProt P04585)	3.3
O=P(O)(O)C(O)(Cc1cccc(-c2ccc(F)cc2)c1)P(=O)(O)O [Compound 313A]	TAM-mutant HIV-1 reverse transcriptase (UniProt P04585)	1.9
O=P(O)(O)C(O)(Cc1cccc(-c2ccc(Cl)cc2)c1)P(=O)(O)O [Compound 314A]	TAM-mutant HIV-1 reverse transcriptase (UniProt P04585)	0.9
O=P(O)(O)C(CNc1cccc(-c2ccccc2)c1)P(=O)(O)O [Compound 312A]	TAM-mutant HIV-1 reverse transcriptase (UniProt P04585)	11.3
O=[N+]([O-])c1cccc(CC(O)(P(=O)(O)O)P(=O)(O)O)c1 [Compound 256A]	TAM-mutant HIV-1 reverse transcriptase (UniProt P04585)	2.5
COc1ccc(-c2cccc(CC(O)(P(=O)(O)O)P(=O)(O)O)c2)cc1 [Compound 315A]	TAM-mutant HIV-1 reverse transcriptase (UniProt P04585)	2.4
O=P(O)(O)C(Nc1cccc(Br)c1)P(=O)(O)O [Compound 302A]	TAM-mutant HIV-1 reverse transcriptase (UniProt P04585)	1
O=P(O)(O)C(O)(Cc1cccc(I)c1)P(=O)(O)O [Compound 251A]	TAM-mutant HIV-1 reverse transcriptase (UniProt P04585)	3.4
O=P(O)(O)C(O)(Cc1cccc2ccccc12)P(=O)(O)O [Compound 257A]	TAM-mutant HIV-1 reverse transcriptase (UniProt P04585)	1.35
O=P(O)(O)C(O)(Cc1cccc(-c2cc(F)ccc2F)c1)P(=O)(O)O [Compound 334A]	TAM-mutant HIV-1 reverse transcriptase (UniProt P04585)	1.5
O=P(O)(O)C(O)(Cc1ccc(Cl)c(Cl)c1)P(=O)(O)O [Compound 342A]	TAM-mutant HIV-1 reverse transcriptase (UniProt P04585)	0.4

###

Target: TAM-mutant HIV-1 reverse transcriptase (UniProt P04585)
Format: biochemical
Set-up: AZT-terminated DNA that had undergone excision; other: 20 micromolar 218A, 3 mM ATP, after 10 minutes; 65% without bisp; other: 5 micromolar bisphosphonate, 3 mM ATP, after 10 min; 65% without
Details: BPH concentration not given
# % Inhibition of AZT excision >= 70% gives y, anything below gives n

COMPOUND	CLASS
CC(C)c1cccc(NC(P(=O)(O)O)P(=O)(O)O)c1 [Compound 248A]	n
O=[N+]([O-])c1cccc(CC(O)(P(=O)(O)O)P(=O)(O)O)c1 [Compound 256A]	n
O=P(O)(O)C(O)(Cc1cccc(Br)c1)P(=O)(O)O [Compound 255A]	y
CCn1c2ccccc2c2cc(NC(P(=O)(O)O)P(=O)(O)O)ccc21 [Compound 228A]	n

###

Biological target: TAM-mutant HIV-1 reverse transcriptase (UniProt P04585)
Type: biochemical
Parameters: other: preferred BPH variants
Conditions: read-out: Estimated IC50; preferred BPH variants; quantity inhibited not given
Each entry falls into one class according to its IC50; the ranges are one: < 3 µM; two: ≥ 3 µM and < 5 µM; three: ≥ 5 µM

COMPOUND	TARGET_OR_SYSTEM	CLASS
O=P(O)(O)C(O)(CC12CC3CC(CC(C3)C1)C2)P(=O)(O)O [Compound 329A]	TAM-mutant HIV-1 reverse transcriptase (UniProt P04585)	two
CC(C)CCNCC(P(=O)(O)O)P(=O)(O)O [Compound 311A]	TAM-mutant HIV-1 reverse transcriptase (UniProt P04585)	three
O=P(O)(O)C(O)(Cc1cccc(-c2ccc(F)c(F)c2)c1)P(=O)(O)O [Compound 336A]	TAM-mutant HIV-1 reverse transcriptase (UniProt P04585)	one
CC(C)c1cccc(NC(P(=O)(O)O)P(=O)(O)O)c1 [Compound 248A]	TAM-mutant HIV-1 reverse transcriptase (UniProt P04585)	two
COc1ccc(-c2ccc(CC(O)(P(=O)(O)O)P(=O)(O)O)cc2)cc1 [Compound 333A]	TAM-mutant HIV-1 reverse transcriptase (UniProt P04585)	three
COCc1cccc(NC(P(=O)(O)O)P(=O)(O)O)c1 [Compound 281A]	TAM-mutant HIV-1 reverse transcriptase (UniProt P04585)	three
O=P(O)(O)C(O)(Cc1ccc(-c2ccc(F)cc2)cc1)P(=O)(O)O [Compound 325A]	TAM-mutant HIV-1 reverse transcriptase (UniProt P04585)	one
O=P(O)(O)C(O)(Cc1cccc(Cl)c1)P(=O)(O)O [Compound 253A]	TAM-mutant HIV-1 reverse transcriptase (UniProt P04585)	two
O=P(O)(O)C(O)(Cc1cccc(Br)c1)P(=O)(O)O [Compound 255A]	TAM-mutant HIV-1 reverse transcriptase (UniProt P04585)	one
O=P(O)(O)C(O)(Cc1cccc(C(F)(F)F)c1)P(=O)(O)O [Compound 250A]	TAM-mutant HIV-1 reverse transcriptase (UniProt P04585)	one
O=P(O)(O)C(Nc1cccc(CO)c1)P(=O)(O)O [Compound 280A]	TAM-mutant HIV-1 reverse transcriptase (UniProt P04585)	three
O=P(O)(O)C(O)(Cc1cccc(I)c1)P(=O)(O)O [Compound 279A]	TAM-mutant HIV-1 reverse transcriptase (UniProt P04585)	one
CCn1c2ccccc2c2cc(NC(P(=O)(O)O)P(=O)(O)O)ccc21 [Compound 228A]	TAM-mutant HIV-1 reverse transcriptase (UniProt P04585)	two
O=P(O)(O)C(CNc1ccc(-c2ccccc2)cc1)P(=O)(O)O [Compound 331A]	TAM-mutant HIV-1 reverse transcriptase (UniProt P04585)	two
O=P(O)(O)C(Cn1cnc2ccccc21)P(=O)(O)O [Compound 298A]	TAM-mutant HIV-1 reverse transcriptase (UniProt P04585)	three
O=[N+]([O-])c1cccc(NC(P(=O)(O)O)P(=O)(O)O)c1 [Compound 304A]	TAM-mutant HIV-1 reverse transcriptase (UniProt P04585)	one
COc1cccc(CC(O)(P(=O)(O)O)P(=O)(O)O)c1 [Compound 341A]	TAM-mutant HIV-1 reverse transcriptase (UniProt P04585)	three
CN(C)Cc1cccc(CC(O)(P(=O)(O)O)P(=O)(O)O)c1 [Compound 289A]	TAM-mutant HIV-1 reverse transcriptase (UniProt P04585)	three

###

Target: TAM-mutant HIV-1 reverse transcriptase (UniProt P04585)
Assay type: biochemical
Design: AZT-terminated DNA that had undergone excision; other: 20 micromolar 218A, 3 mM ATP, after 10 minutes; 65% without bisp; other: 5 micromolar bisphosphonate, 3 mM ATP, after 10 min; 65% without
Conditions: BPH concentration not given
% Inhibition of AZT excision listing for selected compounds.
ASSAY_READOUT: % Inhibition of AZT excision (%)

COMPOUND	TARGET_OR_SYSTEM	MEASUREMENT
O=P(O)(O)C(O)(Cc1cccc(Cl)c1)P(=O)(O)O [Compound 253A]	TAM-mutant HIV-1 reverse transcriptase (UniProt P04585)	70
O=P(O)(O)C(Nc1ccc2c(c1)CCC2)P(=O)(O)O [Compound 215A]	TAM-mutant HIV-1 reverse transcriptase (UniProt P04585)	75
O=P(O)(O)C(Nc1cccc(Cc2ccccc2)c1)P(=O)(O)O [Compound 262A]	TAM-mutant HIV-1 reverse transcriptase (UniProt P04585)	66
